FYI, the data here is from ChEMBL document CHEMBL1201862.

Assay Explanation: inhibitors of firefly luciferase expression or activity, dose response, H4 neuroglioma cells, luminescence (AID 1990)
Assay type: functional, cell-based
The source made the active and inactive calls.
EC50 reference
Assay Readout: EC50

Item Smiles | Result
O=C(O)CSCC(=O)Nc1ccc(C2CCCCC2)cc1 | 0.101 µM (active)
CC(C)[C@@H](C(=O)N1CCCC1)N1C(=O)N2CCc3c([nH]c4ccccc34)[C@@]2(C)C1=O | > 120 µM (not active)
Fc1ccc(C(OCCN2CCN(CCCc3ccccc3)CC2)c2ccc(F)cc2)cc1 | 9.61 µM (active)
CN(C)c1oc(-c2ccccc2Cl)nc1C#N | > 120 µM (not active)

###

Study System: Glucose-6-phosphate 1-dehydrogenase (Homo sapiens, UniProt P11413)
Sequence (P11413 whole entry): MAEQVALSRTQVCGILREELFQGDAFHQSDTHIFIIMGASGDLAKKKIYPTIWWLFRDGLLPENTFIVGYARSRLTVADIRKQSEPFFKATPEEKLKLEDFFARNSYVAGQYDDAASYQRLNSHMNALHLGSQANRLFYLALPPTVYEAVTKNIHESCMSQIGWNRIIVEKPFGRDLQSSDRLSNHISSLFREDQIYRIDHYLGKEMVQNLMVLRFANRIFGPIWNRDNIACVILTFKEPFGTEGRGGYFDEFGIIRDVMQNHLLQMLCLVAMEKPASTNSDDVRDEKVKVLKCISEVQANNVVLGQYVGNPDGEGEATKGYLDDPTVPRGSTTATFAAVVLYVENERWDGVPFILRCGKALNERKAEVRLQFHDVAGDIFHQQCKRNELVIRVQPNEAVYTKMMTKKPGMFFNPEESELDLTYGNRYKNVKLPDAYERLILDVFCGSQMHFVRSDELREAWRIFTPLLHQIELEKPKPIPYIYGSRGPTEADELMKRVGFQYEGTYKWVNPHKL
Assay Explanation: human G6PD enzyme inhibitors, dose response, selectivity assay for P. falciparum G6PD inhibitor project, biochemical, fluorescence (AID 504792)
Assay type: functional
Active and inactive are the calls of the source.
Classes used: active, inactive

Compound | Class Assignment
O=C(O)CSc1cc(NS(=O)(=O)c2cccc([N+](=O)[O-])c2)c2ccccc2c1O | active
O=C(O)C(Cc1ccccc1)N1C(=O)C=CC1=O (stereo not given) | inactive
CCN1CCN(C(=S)c2ccc(O)cc2)CC1 | inactive
COc1ccc(Cl)cc1NC(=O)c1cccc([N+](=O)[O-])c1O | inactive
Sc1nc2c[nH]c(S)nc-2n1 | inactive

###

Study System: Apoptotic protease-activating factor 1 (Homo sapiens)
Sequence (O14727 whole entry): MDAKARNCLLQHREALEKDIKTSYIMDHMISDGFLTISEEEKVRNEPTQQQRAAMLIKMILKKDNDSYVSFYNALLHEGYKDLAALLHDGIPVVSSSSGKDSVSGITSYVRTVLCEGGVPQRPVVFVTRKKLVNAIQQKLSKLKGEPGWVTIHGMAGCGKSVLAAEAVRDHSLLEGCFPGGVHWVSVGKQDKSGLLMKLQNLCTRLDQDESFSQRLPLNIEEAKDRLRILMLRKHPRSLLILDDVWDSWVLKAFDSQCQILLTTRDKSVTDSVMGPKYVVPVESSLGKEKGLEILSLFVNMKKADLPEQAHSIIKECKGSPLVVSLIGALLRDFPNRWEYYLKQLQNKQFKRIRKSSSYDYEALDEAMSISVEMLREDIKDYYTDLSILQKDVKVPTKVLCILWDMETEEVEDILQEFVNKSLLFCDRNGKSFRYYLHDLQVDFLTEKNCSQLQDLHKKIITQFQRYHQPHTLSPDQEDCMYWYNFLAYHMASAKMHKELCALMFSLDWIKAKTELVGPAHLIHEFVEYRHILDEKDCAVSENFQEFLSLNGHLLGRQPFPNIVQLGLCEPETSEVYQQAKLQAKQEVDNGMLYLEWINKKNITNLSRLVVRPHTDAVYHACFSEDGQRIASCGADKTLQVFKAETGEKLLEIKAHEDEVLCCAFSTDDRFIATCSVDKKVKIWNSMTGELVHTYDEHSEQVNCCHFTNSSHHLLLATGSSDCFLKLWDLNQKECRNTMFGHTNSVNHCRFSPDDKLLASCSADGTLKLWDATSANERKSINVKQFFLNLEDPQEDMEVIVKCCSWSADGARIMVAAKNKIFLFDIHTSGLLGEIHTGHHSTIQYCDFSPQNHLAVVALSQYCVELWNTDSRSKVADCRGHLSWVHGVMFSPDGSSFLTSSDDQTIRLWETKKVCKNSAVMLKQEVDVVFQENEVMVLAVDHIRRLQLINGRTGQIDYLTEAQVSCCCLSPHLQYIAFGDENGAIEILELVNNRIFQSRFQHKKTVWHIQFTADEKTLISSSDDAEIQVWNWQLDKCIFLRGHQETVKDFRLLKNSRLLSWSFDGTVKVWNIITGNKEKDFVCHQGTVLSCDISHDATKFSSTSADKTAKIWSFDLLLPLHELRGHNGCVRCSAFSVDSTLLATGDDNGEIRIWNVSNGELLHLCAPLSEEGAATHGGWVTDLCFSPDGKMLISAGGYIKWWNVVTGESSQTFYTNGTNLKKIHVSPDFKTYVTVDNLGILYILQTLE
Assay type: functional
Calls of active or inactive are those of the source.
Classes used: active, inactive

Compound | Class Assignment
CC(=O)N(C1=C(N)C(=O)c2ccccc2C1=O)c1ccccc1 | active
Cc1ccc(S(=O)(=O)/N=C2\C=C(Nc3cccc(C(=O)O)c3)C(=O)c3ccccc32)c(C)c1 | active
Cc1coc2c1C(=O)C(=O)c1c-2ccc2c1CCCC2(C)C [TANSHINONE IIA] | active
Cc1cc(C)c(S(=O)(=O)/N=C2\C=C(NS(=O)(=O)c3ccccc3)C(=O)c3ccccc32)c(C)c1 | active
COc1ccc(C(CNC(=O)c2ccc(S(=O)(=O)Nc3ccccc3F)cc2)N(C)C)cc1 (stereo not given) | inactive

###

Study System: Trypsin (Sus scrofa)
Sequence (P00761 whole entry): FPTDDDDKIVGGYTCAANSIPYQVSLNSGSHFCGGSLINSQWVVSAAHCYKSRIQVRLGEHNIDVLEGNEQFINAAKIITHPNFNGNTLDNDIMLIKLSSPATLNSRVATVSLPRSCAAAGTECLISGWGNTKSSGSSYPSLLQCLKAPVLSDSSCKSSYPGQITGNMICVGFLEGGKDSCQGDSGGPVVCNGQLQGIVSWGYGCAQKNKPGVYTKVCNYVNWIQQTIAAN
Assay Explanation: porcine trypsin inhibitors, dose response, selectivity assay for Rce1 protease inhibitor project, biochemical, quenched peptide fluorescence, cherry-pick (AID 488789)
The source made the active and inactive calls.
AC50 reference
Assay Readout: AC50

Item Smiles | Study System | Result
COc1ccc2c(c1)c1ncn(CCN3CCCCC3)c(=O)c1n2C | Trypsin (Sus scrofa) | 13.1 µM (active)
Cc1oc2c(CN3CCCC3)c(O)ccc2c(=O)c1-c1ccc(Br)cc1 | Trypsin (Sus scrofa) | 9.06 µM (active)
COc1cc2c(C#N)c(N3CCCCC3)nc(N)c2c(N)n1 | Trypsin (Sus scrofa) | 13.6 µM (active)
COc1ccc(C)cc1NC(=O)CCC(=O)Nc1ccc2nc(N3CCN(C)CC3)cc(C)c2c1 | Trypsin (Sus scrofa) | 19.7 µM (active)

###

Study System: Peroxisome proliferator-activated receptor gamma/Nuclear receptor coactivator 3 (Homo sapiens, UniProt P37231)
Sequence (P37231 whole entry): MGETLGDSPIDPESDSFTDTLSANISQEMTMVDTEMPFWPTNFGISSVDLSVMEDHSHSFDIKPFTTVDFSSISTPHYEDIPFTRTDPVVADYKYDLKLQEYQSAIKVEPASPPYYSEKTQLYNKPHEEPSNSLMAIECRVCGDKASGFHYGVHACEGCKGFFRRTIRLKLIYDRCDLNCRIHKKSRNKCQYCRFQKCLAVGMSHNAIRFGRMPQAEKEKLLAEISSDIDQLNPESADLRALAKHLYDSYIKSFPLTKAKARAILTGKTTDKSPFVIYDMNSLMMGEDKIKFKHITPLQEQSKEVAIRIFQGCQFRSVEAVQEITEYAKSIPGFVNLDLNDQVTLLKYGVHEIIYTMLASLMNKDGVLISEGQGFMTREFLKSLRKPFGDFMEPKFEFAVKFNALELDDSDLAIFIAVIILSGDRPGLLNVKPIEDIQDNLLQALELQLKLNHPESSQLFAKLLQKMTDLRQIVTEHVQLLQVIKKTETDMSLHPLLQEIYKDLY
Sequence (Q9Y6Q9 whole entry, further chain): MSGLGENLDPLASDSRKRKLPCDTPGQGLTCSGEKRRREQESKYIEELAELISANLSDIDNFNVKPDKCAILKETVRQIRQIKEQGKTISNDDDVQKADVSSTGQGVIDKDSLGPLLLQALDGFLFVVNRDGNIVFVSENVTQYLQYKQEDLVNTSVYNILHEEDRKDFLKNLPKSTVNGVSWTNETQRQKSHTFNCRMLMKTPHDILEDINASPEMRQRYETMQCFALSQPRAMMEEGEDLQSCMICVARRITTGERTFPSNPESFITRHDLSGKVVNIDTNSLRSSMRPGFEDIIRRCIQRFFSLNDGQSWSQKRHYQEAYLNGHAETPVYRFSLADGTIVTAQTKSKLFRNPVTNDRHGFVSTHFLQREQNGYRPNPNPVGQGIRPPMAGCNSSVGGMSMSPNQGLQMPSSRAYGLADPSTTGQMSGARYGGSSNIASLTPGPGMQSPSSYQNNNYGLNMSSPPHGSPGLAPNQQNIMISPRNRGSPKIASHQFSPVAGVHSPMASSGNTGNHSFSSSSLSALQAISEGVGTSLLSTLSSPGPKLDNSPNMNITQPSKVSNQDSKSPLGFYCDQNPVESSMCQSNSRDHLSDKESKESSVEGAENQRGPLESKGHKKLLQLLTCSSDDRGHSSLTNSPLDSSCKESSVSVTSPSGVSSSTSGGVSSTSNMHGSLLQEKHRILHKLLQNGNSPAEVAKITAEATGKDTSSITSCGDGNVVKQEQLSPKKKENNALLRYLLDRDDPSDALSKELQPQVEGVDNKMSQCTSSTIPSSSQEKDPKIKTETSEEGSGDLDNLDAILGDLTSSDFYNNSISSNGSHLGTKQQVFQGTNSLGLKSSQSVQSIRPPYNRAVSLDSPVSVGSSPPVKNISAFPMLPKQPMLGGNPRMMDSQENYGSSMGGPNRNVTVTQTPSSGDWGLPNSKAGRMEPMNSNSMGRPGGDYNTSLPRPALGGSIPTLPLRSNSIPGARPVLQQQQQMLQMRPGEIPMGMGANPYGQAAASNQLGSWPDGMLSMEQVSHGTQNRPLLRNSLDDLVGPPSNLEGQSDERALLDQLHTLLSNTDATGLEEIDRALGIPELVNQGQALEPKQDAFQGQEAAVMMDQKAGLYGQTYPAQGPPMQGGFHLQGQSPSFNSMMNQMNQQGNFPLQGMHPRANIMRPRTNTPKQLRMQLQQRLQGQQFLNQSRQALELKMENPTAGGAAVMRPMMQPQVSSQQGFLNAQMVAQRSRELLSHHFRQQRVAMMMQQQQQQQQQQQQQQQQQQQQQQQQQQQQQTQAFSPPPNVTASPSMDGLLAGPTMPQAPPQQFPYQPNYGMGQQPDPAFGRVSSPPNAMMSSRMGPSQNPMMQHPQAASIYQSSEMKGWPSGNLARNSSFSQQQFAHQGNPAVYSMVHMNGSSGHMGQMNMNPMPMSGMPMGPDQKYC
Assay Explanation: TR-FRET dose response biochemical High Throughput Screening assay for agonists of the steroid receptor coactivator 3 (SRC-3) recruitment by the peroxisome proliferator-activated receptor gamma (PPAR gamma): non-selective agonists. [Related pubchem assays: 1301 (Confirmation screen.), 1048 (Primary screen.)]
Type: functional
Assay Readout: EC50

Item Smiles | Assay Readout | Result
CSc1cnn(-c2ccccc2)c(=O)c1SC | EC50 | > 79.4 µM (not active)
CCCCN(CC)C(=O)CSc1cc(=O)n(C)c2ccccc12 | EC50 | > 79.4 µM (not active)
O=C(COc1ccc2ccccc2c1)NCCNC(=O)COc1ccc2ccccc2c1 | EC50 | 47.8 µM (not active)
CN(CCCNC(=O)CSc1cc(=O)n(C)c2cc(Cl)ccc12)Cc1ccccc1 | EC50 | > 79.4 µM (not active)
